target: Alpha-bungarotoxin (Bungarus multicinctus); assay: alpha-bungarotoxin binders on microarray, profiling panel, artefact control for SMM control protein annotation, biochemical, small-molecule microarray, Alexa647 label, 635/667 nm fluorescence (AID 1117); settings: alpha-BTX-A647 binding fluorescence, higher = more signal
For each record, write down the corresponding composite z-score.

# input compound: CC(C)C(=C=CC[C@@H](O)c1cccc(OCCO)c1)CCO ; wanted: its composite z-score
-0.529

Try CN(C)CCCC[C@@H]1NC(=O)[C@H]2C[C@@H](C(=O)NCc3ccc(F)cc3)[C@@H](c3ccc(O)cc3)N2C1=O next.
2.5

Now give it for CC(C)N1CC=CC23O[C@@H]4C=CCCOC(=O)C4[C@H]2C(=O)N(CCCCCO)[C@@H]3C1=O (stereo partly drawn) too.
2.25

Now consider CCOC(=O)C1=C(C(=O)OCC)N(S(=O)(=O)CC[Si](C)(C)C)[C@H](c2ccccc2)CC1 .
1.23

Now give it for [N-]=[N+]=Nc1ccccc1[C@@H]1OC(c2ccc(OCCCO)cc2)=N[C@]1(Cc1ccccc1)C(N)=O too.
0.209

Lookup C=CCC(OC(C)=O)[C@@H]1[C@@H](N(Cc2cc3ccccc3o2)C(=O)Cc2ccc(OC)cc2)c2cc(OCCCO)ccc2N1C(=O)Cc1ccc2ccccc2c1 (stereo partly drawn)
0.615

Now try CC(C)CNC(=O)[C@@H]1c2ccccc2C(=O)N(Cc2ccccc2)[C@H]1c1ccc(CO)cc1 .
-0.865

// next record C=CCN1C(=O)[C@]2(O[C@H](CCO)[C@@H]([Si](C)(C)c3ccc(OC)cc3)[C@@H]2C)c2ccccc21
-0.0693

----------
biological target: Follistatin-related protein 3 (Homo sapiens) (UniProt O95633); assay: FSTL3 binders on small-molecule microarrays, primary screen, biochemical, small-molecule microarray, 635 nm fluorescence (AID 1105); settings: FSTL3 binding, higher = more signal;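 note: score merges emission near 667 nm and signal to noise per printed spot across three slides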
Sequence (O95633 whole entry, looked up): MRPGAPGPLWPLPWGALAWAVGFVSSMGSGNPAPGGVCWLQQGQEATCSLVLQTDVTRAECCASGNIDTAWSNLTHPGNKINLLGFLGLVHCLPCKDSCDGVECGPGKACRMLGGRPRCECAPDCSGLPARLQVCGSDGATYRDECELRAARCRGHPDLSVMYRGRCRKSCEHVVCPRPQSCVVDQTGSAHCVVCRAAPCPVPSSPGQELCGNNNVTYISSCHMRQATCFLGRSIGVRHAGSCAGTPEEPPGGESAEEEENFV
Respond with Satisfied for composite z-score values of 0.3 and above, Not satisfied for values below.

Record O=c1cccc(-c2ccccc2C(F)(F)F)o1 ; criterion: composite z-score no lower than 0.3. Met?
Not satisfied

Can you handle CC(C)N1CC=CC23O[C@@H]4C=CCCOC(=O)C4[C@H]2C(=O)N(CCCCCO)[C@@H]3C1=O (stereo partly specified) next?
Not satisfied

Then what about the molecule C=CCC(OC(C)=O)[C@@H]1[C@@H](N(Cc2ccc(-c3cccc(C(F)(F)F)c3)o2)C(=O)c2cccc3ccccc23)c2cc(OCCCO)ccc2N1C(=O)c1ccc2ccccc2c1 (stereo partly specified) ?
Satisfied

Subsequent entry: COc1ccc([Si](C)(C)[C@H]2[C@H](CCO)O[C@@]3(C(=O)N(Cc4ccccc4)c4ccc(N(C=O)c5ccccc5)cc43)[C@@H]2C)cc1
Satisfied

Here is the next molecule: [N-]=[N+]=Nc1ccccc1[C@@H]1OC(c2ccc(OCCCO)cc2)=N[C@]1(Cc1ccccc1)C(N)=O
Not satisfied

Also check Cc1c(-c2ccc(-c3ccc(Cl)c(Cl)c3)o2)nc(-c2ccccc2)c2c1CO[Si]2(C(C)C)C(C)C
Not satisfied

And then CC(=O)c1ccc(C(O)C2C=CC3C(=O)NC(=O)C3N2Nc2ccc(Cl)cc2Cl)cc1 (stereo unspecified) , what is it?
Not satisfied

Further, for C=C(COC)C(=O)CC[C@@H](OC(C)=O)c1ccc(OCCO)cc1 ?
Not satisfied

Here is the next molecule: CC(C)C[C@H]1NC(=O)[C@@H](C)NC(=O)[C@@]23C(=O)N[C@@H](Cc4ccccc4)C2[C@H](C)[C@@]2(C)O[C@H]2C3/C=C/C/C=C\CNC1=O (stereo partly specified)
Satisfied

Also C=CCOC(=O)[C@@H]1[C@H]2C(=O)O[C@H](c3ccccc3)[C@H](c3ccccc3)N2[C@H](c2ccc(OCCOC(=O)[C@H]3C[C@H]4C(=O)NCC(=O)N4[C@H]3c3ccc(O)cc3)cc2)[C@@]12C(=O)Nc1ccc(I)cc12 ?
Satisfied

Further, for CC(=O)c1ccc(C(O)C2C=CC3C(=O)N(C)C(=O)C3N2NC(=O)OC(C)(C)C)cc1 (stereo unspecified) ?
Satisfied

Where these numbers come from: PubChem BioAssay
